assay: pKa by pH-potentiometric titration; format: physicochemical; conditions: 30% (v/v) DMSO/H2O, 25.0 °C, I = 0.1 M (KCl), anoxic, read-out: pKa (NhydrH)
Reported pKa is given for each of the following compounds.
# respond with the number and nothing more

C/C(=N\NC(=S)Nc1cc(C)c(O)c(C)c1)c1cccc(CN2CCOCC2)n1; 10.4
S=C(N/N=C/c1cccc(CN2CCOCC2)n1)Nc1ccccc1; 10.4

Kindly review the next compound as well.
[ask] Query: pKa; subject: "Cc1cc(NC(=S)N/N=C/c2cccc(CN3CCOCC3)n2)cc(C)c1O"
[reply] 10.4

###

assay: n-octanol/water partitioning (shake-flask), log D; conditions: n-octanol/buffered aqueous solution, pH 6
Reported logD is given for each of the following compounds.

Cc1cc(NC(=S)N/N=C/c2cccc(CN3CCOCC3)n2)cc(C)c1O; 1.23
C/C(=N\NC(=S)Nc1cc(C)c(O)c(C)c1)c1cccc(CN2CCOCC2)n1; 1.5

[ask] Query: logD; subject: "S=C(N/N=C/c1cccc(CN2CCOCC2)n1)Nc1ccccc1"
[reply] 2.06
